As shown below, each of these molecules has a reported max response value.
Protocol Text: Confirmation Concentration-Response Assay for Agonists of the Thyroid Stimulating Hormone Receptor; note: reference of the scale not given here
Test Parameters: HEK293 TSHR-CNG cells, membrane potential dye, cAMP; measured here: parental HEK293 counter-screen max
Records with an inconclusive call do not appear.
Could you give me the number in %? Just the number is fine.

The cases that follow already have their max response on record.
>>> df
                                   molecule  assay_result
0  CCC(=NCC1CCCO1)c1c(O)n(Cc2ccccc2)c(=O)[nH]c1=O (stereo not given)          5.62
1    O=c1[nH]c(=O)n(Cc2ccco2)c(O)c1C=NC1CC1          5.23
2            CCn1c(C)c(C(=O)O)c2cc(OC)ccc21          6.15

Can you look up the measured max response of CCOC(=O)C1=C(C)OC(N)=C(C(=O)OC)C12C(=O)Nc1ccc(Br)cc12 (stereo not given) for me? -4.55

Look up max response for this molecule: `CN(C)c1ccc(CN2CC=C(c3ccc(F)cc3)CC2)cc1` 5.57
